Catalogue of activity coefficient values
# ASSAY EXPLANATION: activity coefficient (dimensionless); of the first substance listed, at infinite dilution; xn = mol fraction of the nth substance listed
# EXPERIMENTAL CONTEXT: 348.15 K; Liquid; Chromatography; x1 = 0
Number, no unit, nothing else.

• CCc1ccccc1 [ethylbenzene] + CC(C)C[P+](C)(CC(C)C)CC(C)C.Cc1ccc(S(=O)(=O)[O-])cc1 = 2.17
• CCCO [propan-1-ol] + CC(C)C[P+](C)(CC(C)C)CC(C)C.Cc1ccc(S(=O)(=O)[O-])cc1 = 0.287

Item COC(C)(C)C [2-methoxy-2-methylpropane] + CC(C)C[P+](C)(CC(C)C)CC(C)C.Cc1ccc(S(=O)(=O)[O-])cc1 has what recorded activity coefficient? 4.57

Item Cc1ccccc1C [1,2-dimethylbenzene] + CC(C)C[P+](C)(CC(C)C)CC(C)C.Cc1ccc(S(=O)(=O)[O-])cc1 has what recorded activity coefficient? 2.04
